Assignment: determine reported % Inhibition for the given compounds.
Target: Testicular bovine hyaluronidase (Bos taurus, UniProt Q2YDK3)
Construct: Testicular bovine hyaluronidase (Sigma Chemical Company); purchased Sigma Chemical Company; host or cells: bovine testes
Sequence (Q2YDK3 36-553): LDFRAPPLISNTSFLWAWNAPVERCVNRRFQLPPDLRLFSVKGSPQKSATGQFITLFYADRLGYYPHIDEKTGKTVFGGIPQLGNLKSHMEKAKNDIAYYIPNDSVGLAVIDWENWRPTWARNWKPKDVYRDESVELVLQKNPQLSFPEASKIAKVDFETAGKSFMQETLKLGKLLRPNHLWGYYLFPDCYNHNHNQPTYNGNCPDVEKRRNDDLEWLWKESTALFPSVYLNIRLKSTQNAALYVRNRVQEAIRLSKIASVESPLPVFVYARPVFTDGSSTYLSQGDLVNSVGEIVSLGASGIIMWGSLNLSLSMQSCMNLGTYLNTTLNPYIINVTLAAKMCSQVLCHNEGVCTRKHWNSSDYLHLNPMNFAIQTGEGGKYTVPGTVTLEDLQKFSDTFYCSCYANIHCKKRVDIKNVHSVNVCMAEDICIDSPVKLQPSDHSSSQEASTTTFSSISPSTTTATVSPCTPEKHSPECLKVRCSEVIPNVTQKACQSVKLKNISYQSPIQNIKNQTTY
Assay: Hyaluronidase inhibition in vitro (chondroitin sulfate agar plate)
Format: biochemical
Settings: Conc. of Test Solution 1 Mg/ml
Numbers only, in %.

Illustrative cases are given below, each with its answer.
CC(C)CCCCCCCCCCCOS(=O)(=O)O
7
CC(C)CCCC(C)CCCC(C)CCOS(=O)(=O)[O-].[Na+] (stereo not drawn)
39

API: the following record is the query input.
response.value for CCCCC/C=C\C/C=C\CCCCCCCCOS(=O)(=O)O (field: % Inhibition) = 0

* * *

Molecular target: Testicular bovine hyaluronidase (Bos taurus, UniProt Q2YDK3)
Construct: Testicular bovine hyaluronidase (Sigma Chemical Company); purchased Sigma Chemical Company; host or cells: bovine testes
Assay: Hyaluronidase inhibition in vitro (chondroitin sulfate agar plate)
Type: biochemical
Details: Conc. of Test Solution 1 Mg/ml
RECORDED_METRIC: % Inhibition (%)
Numbers only, in %.

Illustrative cases are given below, each with its answer.
CCCC/C=C\CCCCCCCCOS(=O)(=O)O
13
CCCCCCCCCC(CCCCCCCC)OS(=O)(=O)O (centres unmarked)
7
CCCC/C=C/CCCCCCCCOS(=O)(=O)[O-].[Na+]
13
CCCCCCCCCC(CCCCCC)OS(=O)(=O)O (centres unmarked)
0

API: the following record is the query input.
response.value for CCCCCCCCC(CCCCC)OS(=O)(=O)O (centres unmarked) (field: % Inhibition) = 12

* * *

Target: Testicular bovine hyaluronidase (Bos taurus, UniProt Q2YDK3)
Construct: Testicular bovine hyaluronidase (Sigma Chemical Company); purchased Sigma Chemical Company; host or cells: bovine testes
Experiment: Hyaluronidase inhibition in vitro (chondroitin sulfate agar plate)
Type: biochemical
Settings: Conc. of Test Solution 10 Mg/ml
Assignment: determine reported % Inhibition for the given molecules.
Note: state the figure and append the unit.

Can you give me % Inhibition for all of these, one by one?
1. CCCCCCCCCCCCCCCCCCOS(=O)(=O)O
2. CCCCCCCCCCCCCOS(=O)(=O)O
3. CCCCCCCCCCCCCCCOS(=O)(=O)O
4. CCCCCCCCCCCCCCCCCCCCOS(=O)(=O)O
5. CCCCCCCCCCCCCCCCCOS(=O)(=O)O
6. CCCCCCCCCCCCCCCCOS(=O)(=O)O
7. CCCCCCCCCCCOS(=O)(=O)O

Result:
1: 30%; 2: 80%; 3: 60%; 4: 0%; 5: 23%; 6: 75%; 7: 100%

response.value for CCCCCCCCCCCCOS(=O)(=O)[O-].[Na+] (field: % Inhibition) = 71%
